Source: PubChem BioAssay (NCI)

# System: SF-268 CNS
# method: NCI tumour cell line growth inhibition, 48 h
readoutLabel: TGI

For record CN(C)CCn1c(=O)c2ccc3c4c(nn3CCN(C)C)c3cc(O)ccc3n(c1=O)c24 the listed TGI is 0.591 µM

For record Nc1ccc(-c2ccc(N)cc2I)c(I)c1 the listed TGI is > 100 µM

For record O=C1CCC2(c3ccccc3)Nc3ncccc3N12 (centres undefined) the listed TGI is > 100 µM

For record CCOC(=O)C1=C(Nc2cccc3ccccc23)OC/C1=N\NC(=O)c1ccccc1O the listed TGI is > 100 µM

----------
# Test system: SR leukemia
# method: NCI tumour cell line growth inhibition, 48 h; in the data active means GI50 below about 0.43 µM; inactive means the rest
Pick one and only one: active, inactive

[in] Could you check what this test reported for CCN1C(=O)N(CC)C2C1NN=c1s/c(=C\c3cc4ccccc4[nH]3)c(=O)n12 (stereo not drawn) ?
[out] active

[in] Could you check what this test reported for Nc1c(C(=O)Nc2ccccc2)sc2nc3c(cc12)CN(Cc1ccccc1)CC3 ?
[out] inactive

[in] Could you check what this test reported for Nc1n[nH]c2ccc([C@@H]3Nc4ccc5[nH]ncc5c4[C@H]4C5C=CC(C5)[C@@H]34)cc12 (stereo partly drawn) ?
[out] active

[in] Could you check what this test reported for C=C1CCC2C3(C)COC(c4ccccc4Br)OC3CCC2(C)C1C/C=C1/C(=O)OCC1OC(C)=O (stereo not drawn) ?
[out] active

[in] Could you check what this test reported for CC(C)c1ccc(Nc2nccc(-c3cnn4ncccc34)n2)cc1 ?
[out] active

[in] Could you check what this test reported for Cc1[nH]c2ccccc2c1CCNCc1ccc(/C=C/C(=O)NO)cc1 ?
[out] active

[in] Could you check what this test reported for CCCc1cc(=O)n2c(C(=O)Nc3ccccc3OC)c(C(=O)Nc3ccc(F)cc3)sc2n1 ?
[out] inactive

[in] Could you check what this test reported for CSc1ccccc1C#Cc1ccccc1C#CCCCCO ?
[out] inactive

[in] Could you check what this test reported for O=C(OCCBr)c1ccc(Cl)c([N+](=O)[O-])c1 ?
[out] inactive

[in] Could you check what this test reported for C[C@]12CCc3sc(Nc4ccc(O)cc4)nc3C1=CC[C@@H]1[C@@H]2CC[C@]2(C)C(=O)CC[C@@H]12 ?
[out] inactive

[in] Could you check what this test reported for COCCNc1cc(NC(=O)N2CCCc3cc(CN4CCN(C)CC4=O)c(C=O)nc32)ncc1C#N ?
[out] inactive

[in] Could you check what this test reported for Nc1ccc(-c2ccc(N)cc2I)c(I)c1 ?
[out] inactive

[in] Could you check what this test reported for COc1cc(C2CC(c3ccc(N(C)C)cc3)=NN2C(C)=O)cc(OC)c1OC (stereo not drawn) ?
[out] inactive

----------
# System: NCI-H522 lung
# method: NCI tumour cell line growth inhibition, 48 h
readoutLabel: TGI (µM)
Answer format: numeric, µM implied, no suffix.

For record CCOC(=O)/C=C(\C(=O)OCC)n1ccc(=O)n(CC(=O)OCC)c1=O the listed TGI is 3.25

For record CCCOC(=O)CCn1c(SC)nc2[nH]cc(-c3ccccc3)c2c1=O the listed TGI is 32.5

For record COc1ccc(/C=C2\CCC(CN(C)C)C2=O)cc1OC (stereo unspecified) the listed TGI is 4.23

For record CC(=O)N1N(c2ccc([N+](=O)[O-])cc2)C(=O)C1(C)C the listed TGI is 27.2

For record CCCCN(CCCC)c1ccc(C(=NC(C)CCCN(CC)CC)c2ccc(N(C)C)cc2)cc1 (stereo unspecified) the listed TGI is 1.56

For record S=C(Nc1cc(Cl)c(Cl)cc1Cl)SCc1ccccc1 the listed TGI is 59.5

----------
# Tested on: NCI-H23 lung
# method: NCI tumour cell line growth inhibition, 48 h
Can you tell me GI50 for the items I'm about to list?

Record O=C(CN1CCN(c2ccccc2)CC1)N1CCN(c2nnc(-c3ccc(Cl)cc3)c(-c3ccc(Cl)cc3)n2)CC1 / NCI-H23 lung, GI50 recorded as 23.4 µM

Record Nc1ccc(-c2ccc(N)cc2I)c(I)c1 / NCI-H23 lung, GI50 recorded as 17.8 µM

Record COC(=O)C1=C(OC(=O)c2ccc(Cl)cc2)C(C(=O)OC)[C@@]2(O)[C@@H](C(=O)OC)C(c3ccccc3Cl)C[C@@H]1[C@@H]2C(=O)OC (stereo not given in full) / NCI-H23 lung, GI50 recorded as 3.23 µM

Record CN(C)CC1CCCCCC(CN(C)C)C1=O (stereo not given) / NCI-H23 lung, GI50 recorded as 8.94 µM

Record OCC1OC(n2cnc3c(=S)nc[nH]c32)C(O)C1O (stereo not given) / NCI-H23 lung, GI50 recorded as 4.15 µM

----------
Can you tell me log10(TGI) for the items I'm about to list?
# Test system: SK-MEL-5 melanoma
# method: NCI tumour cell line growth inhibition, 48 h
Hello, just confirming the data are log10 of TGI with units of µM.

Record Clc1nc(Cl)c(-c2ccccc2)c(Cl)n1 / SK-MEL-5 melanoma, log10(TGI) recorded as 0.97

Record Oc1ccc(/C=C/c2ccc3cccc(O)c3n2)cc1O / SK-MEL-5 melanoma, log10(TGI) recorded as 1.13

Record COc1ccc(/C=C2\CCC(CN(C)C)C2=O)cc1OC (stereo unspecified) / SK-MEL-5 melanoma, log10(TGI) recorded as 1.38

Record Cc1[nH]c2ccccc2c1CCNCc1ccc(/C=C/C(=O)NO)cc1 / SK-MEL-5 melanoma, log10(TGI) recorded as -1.56

Record CN(C)CCn1c(=O)c2ccc3c4c(nn3CCN(C)C)c3cc(O)ccc3n(c1=O)c24 / SK-MEL-5 melanoma, log10(TGI) recorded as -0.10

----------
# System: HCT-15 colon
# method: NCI tumour cell line growth inhibition, 48 h
Can you tell me TGI for the items I'm about to list?
Answer format: numeric, µM implied, no suffix.

For record C/C=C/C=C/CCCCCCCCCCCCCC1(OC)C=CC(CC(=O)OC)OO1 (configuration not stated) the listed TGI is 11.2

For record COC(=O)C(F)C(Br)C(=O)OC (configuration not stated) the listed TGI is 3.84

For record c1ccc2cc(CNCCOCCOCCNCc3ccc4ccccc4c3)ccc2c1 the listed TGI is 3.46

For record CC1CCC(C(C)C)C(O[C@@H]2OC(=O)C[C@@H]2Sc2ccccc2)C1 (some centres not stated) the listed TGI is 59.5

For record Nc1ccc(-c2ccc(N)cc2I)c(I)c1 the listed TGI is 34.1

For record CCOC(=O)C1(C/C=C\CBr)CCCCCCCCCCC1=O (configuration not stated) the listed TGI is 32.8

For record O=C(CCCSc1nc(-c2ccccc2)cc(-c2ccc(Cl)cc2)n1)NO the listed TGI is 13.5

For record CCN(CC)c1ccc(C(=N)c2ccc(N(C)C)cc2)cc1 the listed TGI is 7.93

For record COC1=CC(=O)c2c(O)c3c(c(O)c2C1=O)C=C(C)OC3O (configuration not stated) the listed TGI is 2.07

----------
Can you tell me GI50 for the items I'm about to list?
# Test system: MOLT-4 leukemia
# method: NCI tumour cell line growth inhibition, 48 h

For record C[C@]12CCc3sc(Nc4ccc(O)cc4)nc3C1=CC[C@@H]1[C@@H]2CC[C@]2(C)C(=O)CC[C@@H]12 the listed GI50 is 2.38 µM

For record C=C1CCC2C3(C)COC(c4ccccc4Br)OC3CCC2(C)C1C/C=C1/C(=O)OCC1OC(C)=O (centres undefined) the listed GI50 is 0.821 µM

For record COc1ccc(-c2nn(-c3cccc(Cl)c3)cc2-c2cc(-c3ccccc3)nc(N)n2)cc1 the listed GI50 is 2.03 µM

For record N=C(N)c1ccc(COc2ccccc2OCc2ccc(C(=N)N)cc2)cc1 the listed GI50 is 49.6 µM

----------
# Test system: OVCAR-3 ovarian
# method: NCI tumour cell line growth inhibition, 48 h
Can you tell me TGI for the items I'm about to list?
Answer format: numeric, µM implied, no suffix.

For record CC(=O)N1N(c2ccc([N+](=O)[O-])cc2)C(=O)C1(C)C the listed TGI is 40.5

For record CCCOC(=O)CCn1c(SC)nc2[nH]cc(-c3ccccc3)c2c1=O the listed TGI is 54.1

For record CCCCCC[C@H]1C(=O)O[C@H](C)[C@H](NC(=O)c2cccc(NC=O)c2OC)C(=O)O[C@@H](C)[C@@H]1OC(=O)CC(C)C (tested in a mixture with another compound) the listed TGI is 22.5

For record O=C(OCCBr)c1ccc(Cl)c([N+](=O)[O-])c1 the listed TGI is 6.43

For record Nc1nc(N)c2[nH]cnc2n1 (tested in a mixture with another compound) the listed TGI is 74.4

For record CC12CC(OC(=O)[C@]1(C)O)[C@@H]([C@]1(O)CC[C@H]3[C@@H]4C[C@H]5O[C@]56[C@@H](O)C=CC(=O)[C@]6(C)[C@H]4CC[C@@]31C)C2 (some centres undefined) the listed TGI is 7.72
